test: P. berghei load reduction in hepatocytes – cell-based, HepG2, luciferase luminescence, HepG2 viability, primary screen (AID 624349);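 further: 100% = mean of DMSO negative control wells on the same plate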; details: P. berghei liver stage in HepG2, luciferase luminescence, concentration not given here; active compounds read low
Note to self: class labels come from recorded parasite load remaining, ranges listed here: bucket 1 = under 50%, bucket 2 = from 50% up to 80%, bucket 3 = 80% and over

Record excerpt, results attached:
[[record]]
molecule = "CC(=O)N(CC(C)C(=O)O)c1c(I)cc(I)c(N)c1I (stereo unspecified)"
discrete_label = "bucket 2"

[[record]]
molecule = "COc1cc2ncnc(N3CCN(C(=O)Nc4ccc(Oc5ccccc5)cc4)CC3)c2cc1OC"
discrete_label = "bucket 1"

[[record]]
molecule = "CC(=O)O[C@H]1C[C@@]2(C)[C@@H](C[C@@H](O)[C@H]3[C@@]4(C)CC[C@@H](O)[C@@H](C)C4CC[C@@]32C)/C1=C(\\CCC=C(C)C)C(=O)O (stereo partly specified)"
discrete_label = "bucket 3"


Request: Please let me know in which category the item C[N+]1(C)C[C@@H](O)C[C@H]1C(=O)[O-] belongs.
Response: bucket 3

Request: Please let me know in which category the item CO[C@H]1C[C@@H]2CC[C@@H](C)[C@@](O)(O2)C(=O)C(=O)N2CCCC[C@H]2C(=O)O[C@H](C(C)C[C@H]2CC[C@@H](O)[C@H](OC)C2)CC(=O)[C@H](C)/C=C(\C)[C@@H](O)[C@@H](OC)C(=O)[C@H](C)C[C@H](C)/C=C/C=C/C=C/1C (stereo partly specified) belongs.
Response: bucket 1

Request: Please let me know in which category the item COc1cc(OC)c(/C=C2/C(=O)Nc3ccccc32)c(OC)c1 belongs.
Response: bucket 1

Request: Please let me know in which category the item COc1cc2ncnc(Nc3cccc(O)c3)c2cc1OC belongs.
Response: bucket 2

Request: Please let me know in which category the item CCCCc1c(-c2ccc(O)cc2)[nH]c2nccnc12 belongs.
Response: bucket 1

Request: Please let me know in which category the item CC[C@@H]1OC(=O)C[C@H](O)[C@@H](C)[C@@H](O[C@@H]2O[C@H](C)[C@@H](O[C@H]3C[C@@](C)(O)[C@@H](O)[C@H](C)O3)[C@H](N(C)C)[C@H]2O)[C@@H](C=O)C[C@@H](C)C(=O)/C=C/C(C)=C\[C@@H]1CO[C@H]1O[C@@H](C)[C@H](O)[C@H](OC)[C@@H]1OC belongs.
Response: bucket 1

Request: Please let me know in which category the item C[C@@H]1C[C@H]2[C@@H]3C[C@H](F)C4=CC(=O)C=C[C@]4(C)[C@@]3(Cl)[C@@H](O)C[C@]2(C)[C@H]1C(=O)COC(=O)C(C)(C)C belongs.
Response: bucket 3

Request: Please let me know in which category the item CC(=O)N[C@@H]1[C@@H](O[C@H](C)C(=O)O)[C@H](O)[C@@H](CO)O[C@@H]1O belongs.
Response: bucket 3
